- Test system: HT29 colon
- Method notes: NCI tumour cell line growth inhibition, 48 h
Give measured TGI for each item. Keep answers brief.

Examples with their reported TGI follow.
O=C1CSC(=S)N1c1ccc(F)cc1F : > 100 µM
Cc1c2ccccc2c(CO)c2cc(F)c3ccccc3c12 : 49 µM
O=C(N1CCOCC1)C1(c2ccccc2)CCNCC1 : > 100 µM

Please report TGI for every entry that follows.
1. CC1=Nc2nc3ccccc3n2C(C)(C)C1
2. COC(=O)CCC(=O)CC(=O)C(=O)Nc1ccc(F)cc1
3. Nc1ccc2cc(S(=O)(=O)O)cc(O)c2c1N=Nc1ccc(NC(=O)Nc2ccc(N=Nc3c(N)ccc4cc(S(=O)(=O)O)cc(O)c34)c(S(=O)(=O)O)c2)cc1S(=O)(=O)O
4. Cc1cc(=O)oc2c(CNC(C)C(=O)O)c(O)ccc12 (stereo not given)
5. O=C1C=C(c2c(-c3ccccc3)[nH]c3ccccc23)C(=O)N1c1ccccc1
6. Cn1c(=O)nc2n(-c3ccc(F)cc3)c3ccccc3nc-2c1=O
7. NC(=O)NC(CC(=O)O)C(=O)O (stereo not given)

Resp:
> 100 µM
> 100 µM
> 100 µM
> 100 µM
29.7 µM
38.7 µM
> 100 µM
